Tested on: kynurenine production in HeLa cells
assay-comment: Inhibition of kynurenine production in HeLa cells
Format: cell-based, human
experimental-context: Homo sapiens, HeLa, 48 h
assay-metric: pIC50
One number for each entry, as −log10 of the molar value.

# molecule CCOc1ncc(Nc2cc(C3(C(=O)O)CCC3)cnc2N2C3CCC2CC(c2ccc(F)cc2)C3)cn1 (centres unmarked) ; its pIC50 = 7.66

---

Test system: kynurenine production in HeLa cells
assay-comment: Inhibition of kynurenine production in HeLa cells
Assay type: cell-based, human
experimental-context: Homo sapiens, HeLa, 48 h, HeLa cells, human IFN-γ 50 ng/mL, kynurenine read at 480 nm, read-out: IC50
Kindly state log10(IC50) for each of the entries shown.
Note: values are log10 of IC50 expressed in nM.

For orientation, consider the following solved cases.
INSERT INTO results (structure_smiles, result_value) VALUES
  ('CCOc1ncc(Nc2cc(C3(C(=O)O)CCC3)cnc2N(CC)C2CCOCC2)cn1', 1.05),
  ('CC(C)CN(CC(C)C)c1ccc(C2(C(=O)O)CCCC2)cc1Nc1ccccc1', 0.92),
  ('CC(C)CN(CC(C)C)c1ccc(C2(C(=O)O)CCCC2)cc1Nc1ccc(Cl)cc1', 0.36),
  ('CC(C)CN(c1ncc(C2(C(=O)O)CCC2)cc1NC(=O)Nc1ccc(F)cc1F)C1CCOCC1', 1.52),
  ('CC(C)CN(CC(C)C)c1c(F)cc(Cc2nnn[nH]2)cc1NC(=O)Nc1ccc(F)cc1F', 0.93),
  ('CC(C)CN(CC(C)C)c1ccc(C2(C(=O)O)CCCC2)cc1Nc1nc2ccccc2[nH]1', 0.75),
  ('CC(C)CN(c1ccc(C2(C(=O)O)CCC2)cc1Nc1ccc(F)cc1F)C1CCOCC1', 0.80);

Shifting focus to the compound that follows.
# compound `CC(C)CN(c1ccc(OC(C)(C)C(=O)O)cc1NC(=O)Nc1ccc(F)cc1F)C1CCCCC1` ; its log10(IC50) = 0.28

---

Kindly state Human Hepatocyte Remaining Percentage @ 120 min for each of the entries shown.
Test system: pooled human hepatocytes
assay-comment: Human hepatocyte clearance study
Type: in vitro ADME
experimental-context: pooled human hepatocytes, 120 min
Give bare numbers.

INSERT INTO results (molecule, tested_system, result_value) VALUES
  ('CC(C)CN(CC(C)C)c1ncc(C2(C(=O)O)CCC2)cc1Nc1ccc(C#N)cn1 [Compound 106]', 'pooled human hepatocytes', 69),
  ('NS(=O)(=O)NCCNc1nonc1/C(=N/O)Nc1ccc(F)c(Br)c1 [INCB-24360, reference compound]', 'pooled human hepatocytes', 35),
  ('CC(C)CN(c1ccc(C2(C(=O)O)CCC2)cc1Nc1ccc(C#N)cn1)C1CCOCC1 [Compound 86]', 'pooled human hepatocytes', 75),
  ('CCN(c1ncc(C2(C(=O)O)CCC2)cc1Nc1ccc(Cl)cc1)C1CCOCC1 [Compound 120]', 'pooled human hepatocytes', 94),
  ('CCN(c1ccc(C2(C(=O)O)CCC2)cc1Nc1ccc(C#N)cn1)C1CCOCC1 [Compound 118]', 'pooled human hepatocytes', 85);

Provide each entry's Human Hepatocyte Remaining Percentage @ 120 min from the list below.
1. CC(C)CN(CC(C)C)c1ccc(C2(C(=O)O)CCC2)cc1Nc1ccc(Cl)cn1 [Compound 105]
2. CCOc1ncc(Nc2cc(C3(C(=O)O)CCC3)ccc2N(CC(C)C)C2CCOCC2)cn1 [Compound 75]
3. CC(C)CN(CC(C)C)c1ccc(C2(C(=O)O)CCCC2)cc1Nc1ccccc1 [Compound 48]

Response:
1. 81
2. 88
3. 105
